- Tested on: HL-60
- assay_comment: Cytotoxicity against human HL60 cells after 72 hrs by MTT assay
- Format: functional, cell-based
- test_context: HL-60, 72 h
Parameter: IC50. Scope: all listed entries.
Quick note: give the figure in µM, leave out the unit.

compound	unit_annotation	IC50
C[C@@H]1O[C@H](O[C@H]2[C@H](O[C@H]3CC[C@]4(C)[C@H]5CC=C6[C@@H]7CC(C)(C)CC[C@]7(C(=O)O)CC[C@@]6(C)[C@]5(C)CC[C@H]4C3(C)C)OC[C@H](O)[C@@H]2O)[C@H](O)[C@H](O)[C@H]1O	µM	4.2
C[C@@H]1O[C@@H](O[C@H]2[C@H](O[C@H]3CC[C@]4(C)[C@H]5CC=C6[C@@H]7CC(C)(C)CC[C@]7(C(=O)O)CC[C@@]6(C)[C@]5(C)CC[C@H]4C3(C)C)OC[C@@H](O)[C@@H]2O)[C@H](O)[C@H](O)[C@H]1O	µM	3.6
C[C@@H]1O[C@@H](O[C@H]2[C@H](O)[C@@H](O)[C@H](OC[C@H]3O[C@@H](OC(=O)[C@]45CCC(C)(C)C[C@H]4C4=CC[C@@H]6[C@@]7(C)CC[C@H](O[C@@H]8OC[C@@H](O)[C@H](O)[C@H]8O)C(C)(C)[C@@H]7CC[C@@]6(C)[C@]4(C)CC5)[C@H](O)[C@@H](O)[C@@H]3O)O[C@@H]2CO)[C@H](O)[C@H](O)[C@H]1O	µM	5.7
COc1cccc2c1C(=O)c1c(O)c3c(c(O)c1C2=O)C[C@@](O)(C(=O)CO)C[C@@H]3O[C@H]1C[C@H](N)[C@H](O)[C@H](C)O1 [DOXORUBICIN]	µM	0.9

Exercise: Which IC50 value is on record for `C[C@@H]1O[C@@H](O[C@H]2[C@H](O[C@H]3CC[C@]4(C)[C@H]5CC=C6[C@@H]7CC(C)(C)CC[C@]7(C(=O)O)CC[C@@]6(C)[C@]5(C)CC[C@H]4C3(C)C)OC[C@H](O)[C@@H]2O)[C@H](O)[C@H](O[C@@H]2O[C@H](CO)[C@@H](O)[C@H](O)[C@H]2O)[C@H]1O` ?
Solution: 6.1

Exercise: Which IC50 value is on record for `C[C@@H]1O[C@@H](O[C@@H]2[C@@H](O)[C@H](C)O[C@@H](O[C@H]3[C@H](O[C@H]4CC[C@]5(C)[C@H]6CC=C7[C@@H]8CC(C)(C)CC[C@]8(C(=O)O)CC[C@@]7(C)[C@]6(C)CC[C@H]5C4(C)C)OC[C@@H](O)[C@@H]3O)[C@@H]2O)[C@H](O)[C@H](O)[C@H]1O` ?
Solution: 9.3

Exercise: Which IC50 value is on record for `C[C@@H]1O[C@@H](O[C@H]2[C@H](O[C@H]3CC[C@]4(C)[C@H]5CC=C6[C@@H]7CC(C)(C)CC[C@]7(C(=O)O)CC[C@@]6(C)[C@]5(C)CC[C@H]4C3(C)C)OC[C@H](O)[C@@H]2O)[C@H](O)[C@H](O)[C@H]1O` ?
Solution: 9.2

Exercise: Which IC50 value is on record for `C[C@@H]1O[C@@H](O[C@H]2[C@H](O[C@H]3CC[C@]4(C)[C@H]5CC=C6[C@@H]7CC(C)(C)CC[C@]7(C(=O)O)CC[C@@]6(C)[C@]5(C)CC[C@H]4C3(C)C)O[C@H](CO)[C@H](O)[C@@H]2O)[C@H](O)[C@H](O)[C@H]1O` ?
Solution: 2.5

Where do these numbers come from? They come from ChEMBL document CHEMBL2390836.
